B1: VH:VL chains; a variant is named by its letters at X, in order (parent)
chain 1: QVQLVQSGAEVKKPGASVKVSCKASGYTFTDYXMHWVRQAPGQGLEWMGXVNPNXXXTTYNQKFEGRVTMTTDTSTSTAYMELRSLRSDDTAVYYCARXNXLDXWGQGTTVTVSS
chain 2: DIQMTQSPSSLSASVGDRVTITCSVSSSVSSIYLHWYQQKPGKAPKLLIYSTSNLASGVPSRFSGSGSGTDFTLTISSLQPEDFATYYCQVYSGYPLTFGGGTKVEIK

Variants of: B1
assayProcedure: yeast display scFab, FACS + sequencing
quantityMeasured: non-specific binding call

Some solved cases for reference:
YRKGGDLY
no binding
YRGGDSAY
no binding
YTGTSAWA
no binding
VTATADWA
no binding
SKAKGAWS
binds
SEGRGAAA
no binding
YARGGAGA
no binding
YKTGGALY
no binding

Now turn to the next variant.
// non-specific binding call lookup, key: `VAEKGDWY`
no binding
